- measurement description: Cytotoxicity in HepG2.117 cells, ATPlite Luminescence Assay
- Assay type: cell-based, human
- measurement parameters: human, incubated for 3 days, mean value, read-out: TOX-HepG2.117 CC50 (μM, mean value)
endpoint: CC50 at 3 days (µM)

compound: C[C@@H]1Cc2nn3c(c2CN1C(=O)c1ccc(Cl)c(Cl)c1)C(=O)N(Cc1cccc(F)c1C#N)CC3
sign qualifier: >
quantitative readout: 47

compound: C[C@@H]1Cc2nn3c(c2CN1C(=O)c1ccc(Cl)c(Cl)c1)C(=O)N(C(C)(C)c1ccc(OC(F)F)cc1)CC3
sign qualifier: =
quantitative readout: 21.9

compound: C[C@@H]1Cc2nn3c(c2CN1C(=O)c1ccc(Cl)c(Cl)c1)C(=O)N([C@@H](C)c1ccc(C(F)(F)F)cc1)CC3 (relative stereo)
sign qualifier: >
quantitative readout: 50

compound: COc1ccc(CN2CCn3nc4c(c3C2=O)CN(C(=O)c2ccc(C(F)F)c(F)c2)CC4)cc1
sign qualifier: =
quantitative readout: 10.6

compound: CC(C)Oc1ccc(CN2CCn3nc4c(c3C2=O)CN(C(=O)c2ccc(Cl)c(Cl)c2)[C@H](C)C4)cc1
sign qualifier: =
quantitative readout: 4.29

compound: CC(c1ccncc1)N1CCn2nc3c(c2C1=O)CN(C(=O)c1ccc(Cl)c(Cl)c1)CC3 (stereo not shown)
sign qualifier: >
quantitative readout: 50

compound: Cc1nccnc1C(C)N1CCn2nc3c(c2C1=O)CN(C(=O)c1ccc(Cl)c(Cl)c1)[C@H](C)C3 (stereo partly shown)
sign qualifier: >
quantitative readout: 50
